target: plasma phospholipid transfer protein (PLTP); assay: PLTP inhibition assay (radiolabeled phospholipid transfer from vesicles to HDL by plasma); settings: 3 μl plasma, 0-50 μM compound, 400 μl assay
reported metric: Ki (µM)

smiles_data=CC(C)(C)C(=O)Nc1ccccc1SSc1ccccc1NC(=O)C(C)(C)C reported_metric=Ki readout_units=µM observed_value=15
